Numbers sourced from ChEMBL document CHEMBL1123566.

# Test system: Canis familiaris
# EXPERIMENTAL_PROTOCOL: Mean arterial blood pressure was determined by intraduodenal administration of two dosages of 30 mg/kg of compound in anesthetized dogs. Value was reported for experiment 1
# Type: functional, Canis lupus familiaris
EXPERIMENTAL_READOUT: Mean blood pressure (%)
One number for each entry, in %.

For orientation, consider the following solved cases.
{"COMPOUND": "Cl.O=C1C2CCN(CC2)C1CCCc1ccc(Cl)cc1 (stereo not given)", "EXPERIMENTAL_SYSTEM": "Canis familiaris", "UNITS": "%", "Mean blood pressure": 5}
{"COMPOUND": "OC1C2CCN(CC2)C1CCCc1ccc(Cl)cc1 (stereo not given)", "EXPERIMENTAL_SYSTEM": "Canis familiaris", "UNITS": "%", "Mean blood pressure": 14}

Would you mind listing Mean blood pressure for each of the following compounds?
1. CC(=O)C(CC1C(=O)C2CCN1CC2)C(=O)c1ccc([N+](=O)[O-])cc1.Cl (stereo not given)
2. CC(=O)C(CC1C(=O)C2CCN1CC2)C(=O)c1ccc(Cl)cc1.Cl (stereo not given)
3. Cl.O=C(CCC1C(=O)C2CCN1CC2)c1ccc([N+](=O)[O-])cc1 (stereo not given)

Completion:
[12, -6, -21]
